Test system: Mycobacterium tuberculosis variant bovis BCG
Procedure summary: microbe, parasite or virus in culture
Type: functional
Doc: threshold 6 µM (exclusive). Items with MIC90 beneath it return satisfied; others return not satisfied.

{"columns": ["Structure as smiles", "Assigned category"],
 "data": [
  ["CN1CCCN(c2ncnc3sc(-c4ccccc4)cc23)CC1", "not satisfied"],
  ["Cc1ccc2nc(C)c(C(=O)NCC(C)C)n2c1", "satisfied"]
]}

Item `COc1ccc(CCNc2nccc(-c3cccc(OC4CCNCC4)c3)n2)cc1` : MIC90 beneath 6 µM, strictly?
satisfied

Item `O=C(/C=C/c1ccc(OC(F)(F)F)cc1)NC1CCN(c2ncccc2C(F)(F)F)CC1` : MIC90 beneath 6 µM, strictly?
satisfied

Item `COc1ccc(CCNC(=O)c2nc(-c3ccc(OC)c(OC)c3)no2)cc1OC` : MIC90 beneath 6 µM, strictly?
satisfied

Item `c1ccc(-c2nnc(Sc3ccnc(N4CCN(c5ccncc5)CC4)n3)n2CCCN2CCOCC2)cc1` : MIC90 beneath 6 µM, strictly?
not satisfied

Item `COc1ccc(-c2nnc3sc(Cc4ccccc4)nn23)cc1` : MIC90 beneath 6 µM, strictly?
satisfied

Item `Cc1ccc2nc(Cl)c(CNCc3cccs3)cc2c1` : MIC90 beneath 6 µM, strictly?
not satisfied

Item `Cc1ccc(NC(=O)c2cccc(Cl)c2F)cc1-c1ccc(C(N)=O)cc1` : MIC90 beneath 6 µM, strictly?
not satisfied

Item `Oc1ccc(CCNc2nc(NCc3cccc4ccccc34)nc(NC3CCNCC3)n2)cc1` : MIC90 beneath 6 µM, strictly?
not satisfied

Item `O=C(Nc1ccc(C(F)(F)F)cc1)NC1CCCCC1` : MIC90 beneath 6 µM, strictly?
satisfied

---

Reported MIC90 values follow for various compounds
System: Mycobacterium tuberculosis variant bovis BCG
Procedure summary: microbe, parasite or virus in culture
Type: functional

// worked examples, MIC90 included
{"columns": ["Compound", "System name", "MIC90"],
 "data": [
  ["Cc1cc(C)cc(Oc2ncnc(N3CCCC3CN)c2C)c1 (stereo unspecified)", "Mycobacterium tuberculosis variant bovis BCG", "7.5 µM"],
  ["O=C(Nc1cccc(C(=O)N2CCCCC2c2nc3ccccc3s2)c1)c1cccs1 (stereo unspecified)", "Mycobacterium tuberculosis variant bovis BCG", "0.1 µM"],
  ["CS(=O)(=O)N1CCN(c2ccccc2NC(=O)C(Cl)(Cl)Cl)CC1", "Mycobacterium tuberculosis variant bovis BCG", "3.9 µM"],
  ["Cn1c(=O)c(C(=O)NNC(=O)c2cccc(Cl)c2)c(O)c2ccccc21", "Mycobacterium tuberculosis variant bovis BCG", "5.3 µM"],
  ["COCCN1CCN(c2ncc(-c3ccccc3OCc3cc(C)on3)cn2)CC1", "Mycobacterium tuberculosis variant bovis BCG", "4.4 µM"]
]}

Please find the next compound below.
Name the reported MIC90 value associated with the compound `Cc1cc(NC(=O)c2cccs2)n(-c2nc(C)c(C)c(=O)[nH]2)n1`
1.8 µM

---

Tested on: Mycobacterium tuberculosis variant bovis BCG
Procedure summary: microbe, parasite or virus in culture
Assay type: functional
Quantity kind: MIC90 (µM)
Give the number; µM is assumed, so skip it.

// worked examples, MIC90 included
{"columns": ["Compound", "MIC90 (µM)"],
 "data": [
  ["O=C(Nc1ccc(C(F)(F)F)cc1)OCC1CCCN2CCCCC12 (stereo not given)", 6.9],
  ["c1ccc2c(Cc3nnc(Sc4ccnc(N5CCN(c6ccncc6)CC5)n4)n3CCCN3CCOCC3)c[nH]c2c1", 2.2],
  ["Cc1ccc2c(c1)c(=O)cc(C(F)(F)F)n2CCNC(=O)c1ccccc1F", 9.4],
  ["Cc1csc2nc(Cc3ccc(C(=O)c4ccc(C(=O)OCc5ccccc5)cc4)cc3)oc(=O)c12", 2.3]
]}

Please find the next compound below.
Name the reported MIC90 value associated with the compound `CCN(CC)CCCn1c(Cc2ccccc2)nnc1Sc1ccnc(N2CCN(c3ccncc3)CC2)n1`
2.9
